Tested On: Recombinant human LTC4 synthase (Homo sapiens (Human), UniProt Q16873)
Sequence (Q16873 whole entry): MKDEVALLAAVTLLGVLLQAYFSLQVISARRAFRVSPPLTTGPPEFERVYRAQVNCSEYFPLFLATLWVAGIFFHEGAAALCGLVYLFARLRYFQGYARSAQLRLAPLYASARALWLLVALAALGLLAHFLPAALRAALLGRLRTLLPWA
Assay Summary: In vitro hLTC4 synthase enzyme assay (Test A)
Study Conditions: Test A (Examples 1-61); substrate LTA4, LTC4 detected by HTRF; median of at least two determinations
Please use Condition met for IC50 under 50 nM and Condition not met for everything else, ties included.

Some solved entries appear below for comparison.
{"columns": ["Molecule", "Class Assignment"],
 "data": [
  ["COc1cc(N(Cc2ccc(C)c(F)c2F)CC2CC2)cnc1C(=O)C1CC1C(=O)O (centres unmarked)", "Condition not met"],
  ["COc1cc(N(CC2(C)CC2)c2ccc3c(c2)CCC3)cnc1C(=O)C1CC1C(=O)O (centres unmarked)", "Condition met"],
  ["COc1cc(N(CC2CC2)c2ccc(C)c3ncccc23)cnc1C(=O)C1CC1C(=O)O (centres unmarked)", "Condition not met"],
  ["COc1cc(N(CC2(C)CC2)c2ccc(Cl)cc2)cnc1C(=O)C1CC1C(=O)O (centres unmarked)", "Condition met"],
  ["COc1cc(N(Cc2ccc(Cl)cc2)CC2CC2)ccc1C(=O)C1CC1C(=O)O (centres unmarked)", "Condition not met"]
]}

Find out if reported IC50 for COc1cc(N(CC2CC2)c2ccc(C)c3ccccc23)cnc1C(=O)C1CC1C(=O)O (centres unmarked) is less than 50 nM Condition met

Please check: IC50 for COc1cc(N(CC2CC2)c2cccc3ccccc23)cnc1C(=O)C1CC1C(=O)O (centres unmarked) , strictly under 50 nM or not? Condition met

Given COc1cc(N(CC2CC2)c2ccc(Cl)cc2)cnc1C(=O)C1CC1C(=O)NS(=O)(=O)C1CC1 (centres unmarked) , is recorded IC50 strictly lower than 50 nM? Condition not met

Item COc1cc(N(CC2CC2)c2cccc3c(C(F)(F)F)cccc23)cnc1C(=O)C1CC1C(=O)O (centres unmarked) : IC50 beneath 50 nM, strictly? Condition met

# TODO verify IC50 < 50 nM strictly for this molecule: COc1nc(C(=O)C2CC2C(=O)O)ncc1N(CC1CC1)c1ccc(Cl)c2ccccc12 (centres unmarked) Condition met

###

Tested On: Recombinant human LTC4 synthase (Homo sapiens (Human))
Assay Summary: In vitro hLTC4 synthase enzyme assay (Test A)
Study Conditions: Test A (Examples 1-61); substrate LTA4, LTC4 detected by HTRF; median of at least two determinations
Kindly state IC50 for each of the entries shown.
Answers are plain numbers, in nM.

Some solved cases for reference:
{"columns": ["Compound", "Tested On", "IC50, nM"],
 "data": [
  ["COc1cc(N(CC2CC2)c2ccc(Cl)cc2)ccc1C(=O)C1CC1C(=O)O (stereo not shown)", "Recombinant human LTC4 synthase (Homo sapiens (Human))", 65],
  ["COc1cc(N(Cc2c(C)ccc3ccccc23)CC2CC2)cnc1C(=O)C1CC1C(=O)O (stereo not shown)", "Recombinant human LTC4 synthase (Homo sapiens (Human))", 1840],
  ["COc1cc(N(CC2CC2)c2ccc3c4c(cccc24)CC3)cnc1C(=O)C1CC1C(=O)O (stereo not shown)", "Recombinant human LTC4 synthase (Homo sapiens (Human))", 9]
]}

Now consider a different compound.
Documented IC50 of COc1cc(N(CC2(C(F)(F)F)CC2)c2ccc(Cl)cc2)cnc1C(=O)C1CC1C(=O)O (stereo not shown) : 149
